Exercise: state measured IC50 for each of the molecules provided.
Biological target: Fatty acid synthase (Plasmodium falciparum, UniProt Q965D7)
Sequence (Q965D7 whole entry): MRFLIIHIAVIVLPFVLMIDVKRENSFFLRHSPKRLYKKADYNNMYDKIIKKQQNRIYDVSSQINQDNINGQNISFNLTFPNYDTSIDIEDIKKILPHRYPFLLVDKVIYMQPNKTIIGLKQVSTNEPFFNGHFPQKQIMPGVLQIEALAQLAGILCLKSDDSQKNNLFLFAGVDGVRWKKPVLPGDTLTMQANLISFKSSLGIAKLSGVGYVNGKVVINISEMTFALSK
Could you kindly put the unit after your number?

Tell me the measured IC50 of O=c1cc(-c2ccccc2)oc2cc(O)ccc12 [7-HYDROXYFLAVONE] , please.
20 µM

Tell me the measured IC50 of "O=c1cc(-c2ccc(O)c(O)c2)oc2cc(O)cc(O)c12" , please.
5 µM

Tell me the measured IC50 of "COc1ccc(-c2coc3cc(O)cc(O)c3c2=O)cc1" , please.
8 µM

Tell me the measured IC50 of "COc1cc(OC)c2c(c1C)O[C@H](c1ccccc1)CC2=O" , please.
40 µM

Tell me the measured IC50 of O=C(O[C@@H]1Cc2c(O)cc(O)cc2O[C@@H]1c1cc(O)c(O)c(O)c1)c1cc(O)c(O)c(O)c1 [EPIGALOCATECHIN GALLATE] , please.
0.4 µM

Measured values drawn from ChEMBL document CHEMBL1148505 for this set.
